// provenance: patent US20220073604A1

- TEST TARGET: T1, bacterially produced human IL-6 (human, UniProt P05231 30-212)
- T1 construct: also called bactIL-6; prokaryotic IL-6
- ASSAY SUMMARY: SPR; purified Fab; IL-6 coated on CM5 chip;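 note: dissociation rate taken from the wash phase, association rate fitted over the injection phase with analyte concentration and dissociation rate as inputs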
The binders listed here are annotated with their koff.

BINDER	koff (s⁻¹)
Fab 24E9 (Fab, V domains shown, Fab) VH: EVQLVESGGGLVQPGGSLRLSCAASGFTFSTYAMSWVRQAPGKGPEWVSRISSGGGSTNYADSVKGRFTISRDNAKKTLYLQMKSLKPEDTAVYYCANRAGWGMGDYWGQGTQVTVSS VL: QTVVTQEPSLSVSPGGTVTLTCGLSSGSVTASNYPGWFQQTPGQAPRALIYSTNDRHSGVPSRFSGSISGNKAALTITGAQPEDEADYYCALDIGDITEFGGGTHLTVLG	0.00029
Fab 24D10 (Fab, V domains shown, Fab; also called pur24d10; 28f12(24D10)) VH: QLQVVESGGGLVQPGGSLRLSCAASGFTFSSYAMSWVRQAPGKGPEWVSRISSGGGSTSYADSVKGRFTISRDNAKNTLYLQMNSLKPEDTAVYYCANRAGWGMGDYWGQGTQVTVSS VL: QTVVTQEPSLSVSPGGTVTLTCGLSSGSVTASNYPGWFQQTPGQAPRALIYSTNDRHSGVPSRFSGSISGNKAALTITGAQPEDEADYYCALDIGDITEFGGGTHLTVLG	0.00019
Fab 24A3 (Fab, V domains shown, Fab; also called 28f10(24A3)) VH: QVQVQESGGGLVQPGGSLRLSCAASGFTFSNYAMSWVRQAPGKGLEWVSGISFRGGMISYVDSVKGRFTISRDNAKNTLYLQMNSLKPEDTAVYYCAKNSGSSRSNALDAWGQGTLVTVSS VL: LNFMLTQPPSVSGSPGQKFTIRCTGSFRSDSYVNWYQQLPGTAPKLLINYDDRRVSGVPSRFSGSKSGNSASLTIDGLQAEDEAEYYCSFWDHTFGGHVFGGGTKLTVLG	4.8e-05
